# assayOverview: Cytotoxicity by MTT assay in Vero cells
# testConditions: African green monkey
endpointLabel: CC50 at 72 h

Look over these answered cases.
Consider the molecule CCCSc1ccc2nc(NC(=O)OC)[nH]c2c1 [ABZ, albendazole] . State its measured CC50 at 72 h.
> 500 µM

Consider the molecule CCCOc1ccc2nc(NC(=O)OC)[nH]c2c1 [OBZ, oxibendazole] . State its measured CC50 at 72 h.
> 500 µM

Consider the molecule COC(=O)Nc1nc2ccc(Sc3ccccc3)cc2[nH]1 [FBZ, fenbendazole] . State its measured CC50 at 72 h.
> 500 µM

Consider the molecule COC(=O)Nc1nc2ccc(C(=O)c3ccccc3)cc2[nH]1 [MBZ, mebendazole] . State its measured CC50 at 72 h.
> 500 µM

Consider the additional molecule presented here.
Consider the molecule CCN(CC)CCCC(C)Nc1ccnc2cc(Cl)ccc12 (centres unmarked) [CQ, chloroquine] . State its measured CC50 at 72 h.
469 µM
